# TEST_TARGET: recombinant soluble homotrimeric HA, A/Netherlands/219/03 (H7N7) (influenza A virus A/Netherlands/219/03 (H7N7))
# TEST_PROTOCOL: microarray, trimeric HA, transfection supernatant
# APPLIED_CONDITIONS: remark: other sources report otherwise
EXPERIMENTAL_READOUT: Trimeric HA Binding RLU (RLU)
Give the value, in units of RLU, as a plain number.

Reference set (5 entries):
TCN-547 (5092_F11) (antibody, V domains shown) VH: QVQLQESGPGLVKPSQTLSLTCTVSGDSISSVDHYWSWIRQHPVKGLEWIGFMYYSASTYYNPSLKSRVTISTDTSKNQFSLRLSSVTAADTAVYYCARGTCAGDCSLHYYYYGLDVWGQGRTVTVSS VL: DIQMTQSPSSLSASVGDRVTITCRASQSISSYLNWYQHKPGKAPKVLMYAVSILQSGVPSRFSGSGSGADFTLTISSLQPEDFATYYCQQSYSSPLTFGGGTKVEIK = 2090
TCN-543 (5081_G23) (antibody, V domains shown) VH: QVHLVQSGAEVRKPGDSVKVSCKTSGYTFSTYPVAWVRQVPGQGLEWMGWISTYNGNTNFAQNFQGRVTLTTDTTTNTAYMEVRSLKFDDTAVYYCARVEGSYRDFWNNQNRFDPWGQGTLVTVSS VL: SYVLTQPPSVSVAPGQTARISCGGSNIGGKSVHWYQQKPGQAPVLVVYDDSGRPSGIPERFSGSNSGDTATLTISRVEAGDEADYFCQVWDNFGGVFGTGTKVTVL = 12900
TCN-554 (5277_M05) (antibody, V domains shown) VH: QVQLVQSGADLKKPGASVKVSCKASGYTFTDYYIHWVRQAPGQGLEWMGWINPESGDTKYAQKFQGRVTMTRDTSITTAYMELGRLRSDDTAVYYCARDVSTTWSWFAPWGQGTLVTVSS VL: DIVMTQSPDSLAVSLGERATINCRSSQSIFHNSNNENYLAWYQQKPGQPPKLLIYWASTRESGVPDRFSGSGSGTDFTLTISSLQAEDVAVYFCQQYYNAPLTFGGGTKVEIK = 4520
TCN-557 (5081_A04) (antibody, V domains shown) VH: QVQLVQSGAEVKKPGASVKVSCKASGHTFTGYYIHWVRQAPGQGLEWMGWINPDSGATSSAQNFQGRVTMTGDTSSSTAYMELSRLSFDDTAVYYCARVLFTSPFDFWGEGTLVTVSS VL: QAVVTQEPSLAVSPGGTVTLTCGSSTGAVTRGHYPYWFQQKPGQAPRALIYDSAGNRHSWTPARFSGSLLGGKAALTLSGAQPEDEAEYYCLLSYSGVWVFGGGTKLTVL = 53700
TCN-558 (5248_H10b) (antibody, V domains shown) VH: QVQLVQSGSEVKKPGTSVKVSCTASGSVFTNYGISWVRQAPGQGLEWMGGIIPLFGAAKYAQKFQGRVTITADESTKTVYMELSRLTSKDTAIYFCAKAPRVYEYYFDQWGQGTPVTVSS VL: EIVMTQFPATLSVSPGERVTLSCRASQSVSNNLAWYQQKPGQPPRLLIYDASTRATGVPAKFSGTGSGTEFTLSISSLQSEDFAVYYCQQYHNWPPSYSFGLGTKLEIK = 5840

Ask | Tell me the measured Trimeric HA Binding RLU of TCN-540 (5060_F05) (antibody, V domains shown) VH: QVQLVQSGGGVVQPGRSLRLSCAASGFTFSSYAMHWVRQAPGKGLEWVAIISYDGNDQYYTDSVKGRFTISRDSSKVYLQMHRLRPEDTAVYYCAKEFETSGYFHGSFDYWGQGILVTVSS VL: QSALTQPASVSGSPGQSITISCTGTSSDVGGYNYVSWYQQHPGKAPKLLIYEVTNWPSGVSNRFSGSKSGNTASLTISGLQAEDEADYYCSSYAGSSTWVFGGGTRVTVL , please.
Reply | 4390

// data source = patent US20150104459A1
